Catalogue of pEC50 readings, one per entry.
SYSTEM: T1, recombinant rat Aggrecan G1-IGD-G2 (rat, UniProt P07897 20-684, limits assumed)
T1 construct: also called Rat G1-IGD-G2
TEST_SUMMARY: ELISA on recombinant G1-IGD-G2
pEC50: −log10 of the molar value.

>  <BINDER>
C01010109 (ALB26-608A05-608A05) (VHH, not shown: small tags and cut ends) VHH 1: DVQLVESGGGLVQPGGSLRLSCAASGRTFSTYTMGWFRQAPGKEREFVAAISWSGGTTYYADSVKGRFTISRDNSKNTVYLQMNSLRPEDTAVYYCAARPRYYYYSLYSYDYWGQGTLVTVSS VHH 2: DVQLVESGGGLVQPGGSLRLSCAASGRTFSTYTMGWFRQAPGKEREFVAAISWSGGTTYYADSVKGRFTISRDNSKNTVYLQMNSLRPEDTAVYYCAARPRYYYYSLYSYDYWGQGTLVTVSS

>  <pEC50>
10.02

$$$$
>  <BINDER>
C01010106 (ALB26-604F02-604F02) (VHH, not shown: large carriers; small tags and cut ends) VHH 1: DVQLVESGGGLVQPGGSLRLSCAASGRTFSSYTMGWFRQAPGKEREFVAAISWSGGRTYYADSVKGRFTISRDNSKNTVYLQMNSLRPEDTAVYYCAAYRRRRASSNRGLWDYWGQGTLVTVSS VHH 2: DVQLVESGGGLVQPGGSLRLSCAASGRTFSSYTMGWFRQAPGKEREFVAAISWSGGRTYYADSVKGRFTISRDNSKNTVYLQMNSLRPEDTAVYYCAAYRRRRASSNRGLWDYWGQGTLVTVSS

>  <pEC50>
10.00

$$$$
>  <BINDER>
C01010094 (604F02-ALB26) (VHH, not shown: small tags and cut ends, also called C010100094) VHH: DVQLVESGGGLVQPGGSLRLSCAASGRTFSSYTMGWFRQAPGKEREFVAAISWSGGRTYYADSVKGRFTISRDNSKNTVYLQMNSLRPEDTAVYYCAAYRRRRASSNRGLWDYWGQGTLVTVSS

>  <pEC50>
8.23

$$$$
>  <BINDER>
C01010097 (608A05-ALB26) (VHH, not shown: small tags and cut ends) VHH: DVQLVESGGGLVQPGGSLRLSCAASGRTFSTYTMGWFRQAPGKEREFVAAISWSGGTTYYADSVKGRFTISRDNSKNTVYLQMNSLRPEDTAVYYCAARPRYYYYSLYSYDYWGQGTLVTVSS

>  <pEC50>
9.48

$$$$

The reported measurements were obtained from patent US20200140532A1.
